Ok so here's the combined literature set: pIC50 for Collagenase 3 (Homo sapiens, UniProt P45452).
pIC50: −log10 of the molar value.
parameter measured: pIC50

Solved entries (count: 5):
compound	pIC50
Cc1noc(-c2cc3cc(-c4nc(C(=O)N5CCCCC5)[nH]c4C)ccc3[nH]2)n1	7.19
COCCNC(=O)[C@@H](NC(=O)c1ccc(-c2ccc(C#N)cc2)o1)C1CCCCC1	7.13
CNC(=O)[C@@H](NC(=O)c1ccc(-c2ccc(NC(=O)c3cc(C)c(C)o3)cc2)o1)C1CCCCC1	7.20
CNC(=O)[C@@H](NC(=O)c1ccc(-c2cccc(CNC(=O)c3ccc(C#N)cc3)c2)o1)C(C)C	6.73
O=C(O)[C@@H]1[C@@H](Cn2nnc3ccc(C(F)(F)F)cc3c2=O)CC[C@H]1C(=O)c1ccc(OCc2cccc(C(F)(F)F)c2)cc1 (single isomer, unassigned)	5.59

[a] Cc1noc(-c2cc3cc(-c4cc(C(=O)NCc5ccncc5)ncc4C)ccc3[nH]2)n1
[b] CC#CCOc1ccc(S(=O)(=O)C2(C(=O)NO)CCN(C(=O)c3cccnc3)CC2)cc1
Larger number for pIC50: a , or b ? Give the label under which the chosen entry appears.
a
